SYSTEM TESTED: HLA-B*27:20
ASSAY: IEDB peptide-MHC binding, purified MHC/competitive/fluorescence; filed as Kd, often an IC50 or EC50 that approximates it; bounds were set here for any values at or beyond the usual limits of such assays
STATED CONDITIONS: source organism: Rickettsia felis URRWXCal2
pKd: −log10 of the molar value.
ATTRIBUTE MEASURED: pKd

Summary: FMYALSRAF , HLA-B*27:20, pKd = ≥ 10.00

###

SYSTEM TESTED: HLA-B*58:01
ASSAY: IEDB peptide-MHC binding, purified MHC/direct/fluorescence; filed as Kd, often an IC50 or EC50 that approximates it; bounds were set here for any values at or beyond the usual limits of such assays
STATED CONDITIONS: source organism: Mycobacterium tuberculosis variant bovis
ATTRIBUTE MEASURED: Kd (nM)
Give bare numbers, in nM.

Lab note: measured Kd of VAFYCAGRF was 112
